# EXPERIMENTAL TARGET: T1, human GITR with mFc tag (huGITR-mFc) (human)
# T1 chain: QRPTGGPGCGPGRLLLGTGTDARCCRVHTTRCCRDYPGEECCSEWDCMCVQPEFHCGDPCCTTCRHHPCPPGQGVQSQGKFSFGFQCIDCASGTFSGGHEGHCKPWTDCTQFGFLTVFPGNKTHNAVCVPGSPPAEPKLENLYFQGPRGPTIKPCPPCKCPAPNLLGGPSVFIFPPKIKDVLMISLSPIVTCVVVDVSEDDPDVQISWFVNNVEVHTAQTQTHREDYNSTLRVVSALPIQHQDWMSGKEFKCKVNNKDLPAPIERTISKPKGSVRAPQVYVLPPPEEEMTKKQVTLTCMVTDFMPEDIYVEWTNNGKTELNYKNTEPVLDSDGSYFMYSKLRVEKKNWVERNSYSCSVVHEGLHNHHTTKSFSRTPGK
# METHOD: ELISA, blocking of GITRL-His binding to coated GITR-Fc
This listing pairs binders with measured pIC50.
Convention used: pIC50 is expressed as -log10 of the molar concentration.

# BINDER, pIC50
records = [
    ("mouse monoclonal antibody 18F10 (antibody, V domains shown, Mouse antibody from a hybridoma) VH: QVQLQQSGAELVRPGVSVKISCKCSGYTFTGYDLHWVKQSHAKSLDWIGVISTYYGDANYNQKFKGKATMTVDKSSSTAYMELARLTSEDSAIYYCTRLAESYFFDYWGQGTTLTVSS VL: QILLTQSPAIMSASPGEKVTMTCRASSSVSYIHWYQQKPGSSPKPWIYDTSDLASGFPARFSGTGSGTSYSLIISSMEAEDAATYYCHQRSSYPFTFGSGTKLEIK", 8.22),
    ("mouse monoclonal antibody 7D9 (antibody, V domains shown, Mouse antibody from a hybridoma) VH: DVQLQESGPGLVKPSQSLSLTCTVTGYSITSDYAWNWIRQFPGNKLEWLGYISYSGSTYYNPSLKSRISLTRDTSKNQFFLQLNSVTSEDTATYYCARWDYRYDGRGFDYWGQGTTLTVSS VL: DIQMTQSPSSLSASLGERVSLTCRASQDIGSGLNWLQQEPDGTIKRLIYATSSLDSGVPKRFSGSRSGSDYSLTISSLESEDFVDYNCLQYTSTPWTFGGGTKLEIK", 8.41),
    ("mouse monoclonal antibody 8A11 (antibody, V domains shown, Mouse antibody from a hybridoma) VH: EVKLVESGGGLVKPGGSLKLSCAASGFTFSSYAMSWVRQTPEKRLEWVAYISSGGSTYYPDSVKGRFTISRENARNILYLQMSSLRSEDTAMYYCAREGYGTYGDYWGQGTTLTVSS VL: DIVMSQSPSSLAVSVGEKVTMSCKSSQSLLYSTNQKNYLAWYQQKPGQSPKLLIYWASTRESGVPDRFTGSGSGTDFTLTISSVKAEDLAVYYCQQYYSYLRTFGGGTKLEIK", 8.12),
]

Qu. Return reported pIC50. Input binder: reference antibody BMAB (Merck's MK-4166 antibody) (antibody, V domains shown) VH: QVQLQQSGAEVKKPGSSVRVSCKASGGTFNNNAINWVRQAPGQGLEWMGGIIPMFGTAKYSQNFQGRVAITADESTGTASMELSSLRSEDTAVYYCARSRDLLLFPHHALSPWGRGTMVTVSS VL: SSELTQDPAVSVALGQTVRVTCQGDSLRSYYASWYQQKPGQAPVLVIYGKNNRPSGIPDRFSGSSSGNTASLTITGAQAEDEADYYCSSRDSSGNHWVFGGGTELTVLG
Ans. 8.86
